B1: 1-phosphatidylinositol 4,5-bisphosphate phosphodiesterase gamma-2, residues 772 to 827; numbered along this chain, P16885 (parent)
chain: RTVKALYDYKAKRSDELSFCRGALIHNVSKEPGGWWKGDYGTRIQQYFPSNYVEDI

- Variants of: B1
- Test: abundance fitness (aPCA) (normalised: wild type 0, dead -1); higher = more abundant; growth selection in yeast, the domain comes from the species named
- Measurement conditions: Homo sapiens
Could you label it T if measured abundance fitness is -0.4 or higher, and F otherwise?

**Q:** Please check the record "E31H" and state if its abundance fitness is at or above -0.4.
**A:** T

**Q:** Please check the record "Y9H" and state if its abundance fitness is at or above -0.4.
**A:** T

**Q:** Please check the record "F48P" and state if its abundance fitness is at or above -0.4.
**A:** F

**Q:** Please check the record "K12A" and state if its abundance fitness is at or above -0.4.
**A:** T

**Q:** Please check the record "W36R" and state if its abundance fitness is at or above -0.4.
**A:** F

**Q:** Please check the record "C20V" and state if its abundance fitness is at or above -0.4.
**A:** T

**Q:** Please check the record "S14V" and state if its abundance fitness is at or above -0.4.
**A:** T

**Q:** Please check the record "L17E" and state if its abundance fitness is at or above -0.4.
**A:** F

**Q:** Please check the record "I44N" and state if its abundance fitness is at or above -0.4.
**A:** T

**Q:** Please check the record "L17F" and state if its abundance fitness is at or above -0.4.
**A:** F

**Q:** Please check the record "D39F" and state if its abundance fitness is at or above -0.4.
**A:** F

**Q:** Please check the record "N27H" and state if its abundance fitness is at or above -0.4.
**A:** F

**Q:** Please check the record "S50H" and state if its abundance fitness is at or above -0.4.
**A:** T

**Q:** Please check the record "Y9G" and state if its abundance fitness is at or above -0.4.
**A:** F

**Q:** Please check the record "K37F" and state if its abundance fitness is at or above -0.4.
**A:** T

**Q:** Please check the record "K10G" and state if its abundance fitness is at or above -0.4.
**A:** T

**Q:** Please check the record "H26Q" and state if its abundance fitness is at or above -0.4.
**A:** T

**Q:** Please check the record "N51E" and state if its abundance fitness is at or above -0.4.
**A:** T

**Q:** Please check the record "I25A" and state if its abundance fitness is at or above -0.4.
**A:** F

**Q:** Please check the record "D39T" and state if its abundance fitness is at or above -0.4.
**A:** F

**Q:** Please check the record "Y40N" and state if its abundance fitness is at or above -0.4.
**A:** T

**Q:** Please check the record "K12M" and state if its abundance fitness is at or above -0.4.
**A:** T

**Q:** Please check the record "R43W" and state if its abundance fitness is at or above -0.4.
**A:** T

**Q:** Please check the record "L6G" and state if its abundance fitness is at or above -0.4.
**A:** F

**Q:** Please check the record "G22P" and state if its abundance fitness is at or above -0.4.
**A:** F

**Q:** Please check the record "K37M" and state if its abundance fitness is at or above -0.4.
**A:** F

**Q:** Please check the record "L24T" and state if its abundance fitness is at or above -0.4.
**A:** T

**Q:** Please check the record "G41S" and state if its abundance fitness is at or above -0.4.
**A:** F

**Q:** Please check the record "D15R" and state if its abundance fitness is at or above -0.4.
**A:** F

**Q:** Please check the record "G41Q" and state if its abundance fitness is at or above -0.4.
**A:** T

**Q:** Please check the record "L17G" and state if its abundance fitness is at or above -0.4.
**A:** F

**Q:** Please check the record "Y52S" and state if its abundance fitness is at or above -0.4.
**A:** T

**Q:** Please check the record "G41T" and state if its abundance fitness is at or above -0.4.
**A:** F

**Q:** Please check the record "Y52R" and state if its abundance fitness is at or above -0.4.
**A:** T

**Q:** Please check the record "G34Q" and state if its abundance fitness is at or above -0.4.
**A:** T

**Q:** Please check the record "Y40L" and state if its abundance fitness is at or above -0.4.
**A:** T

**Q:** Please check the record "R43Q" and state if its abundance fitness is at or above -0.4.
**A:** T

**Q:** Please check the record "E54A" and state if its abundance fitness is at or above -0.4.
**A:** T

**Q:** Please check the record "D15G" and state if its abundance fitness is at or above -0.4.
**A:** T

**Q:** Please check the record "Q45S" and state if its abundance fitness is at or above -0.4.
**A:** F

**Q:** Please check the record "P32Q" and state if its abundance fitness is at or above -0.4.
**A:** T

**Q:** Please check the record "E16Q" and state if its abundance fitness is at or above -0.4.
**A:** T

**Q:** Please check the record "H26L" and state if its abundance fitness is at or above -0.4.
**A:** T

**Q:** Please check the record "V53M" and state if its abundance fitness is at or above -0.4.
**A:** F

**Q:** Please check the record "R1M" and state if its abundance fitness is at or above -0.4.
**A:** T
